pIC50: −log10 of the molar value.
pIC50 values for RORc (Homo sapiens), compiled from several publications.

Before answering, review these 7 worked examples.
compound: CN(Cc1ccc(-n2cccn2)cc1)c1ncnc(NCC2(CS(C)(=O)=O)CCOCC2)c1F
test-result: > 5.70
--
compound: CCCn1nc(C)cc1CN(C)c1ncnc(NCc2ccc(CC(N)=O)cc2)c1F
test-result: > 6.30
--
compound: CN(Cc1cccc(-n2cccn2)c1)c1ncnc(NCc2ccc(CC(N)=O)cc2)c1F
test-result: > 6.30
--
compound: O=C(O)CCNC(=O)CC1(CNc2ncnc(N(Cc3ccc(C(F)(F)F)cc3)C3CC3)c2F)CCOCC1
test-result: > 6.00
--
compound: CNC(=O)C1CN(C(=O)[C@@]23CC[C@@H](c4cc(-c5ccccc5F)nnc42)C3(C)C)CCO1 (some centres unmarked)
test-result: 5.42
--
compound: CN(C)C(=O)c1cncc([C@@]23CC[C@@H](c4cc(-c5c(F)cccc5F)nnc42)C3(C)C)n1
test-result: 7.38
--
compound: CCNC[C@@]12CC[C@@H](c3cc(-c4c(F)cccc4F)nnc31)C2(C)C
test-result: 6.06

Okay, next one:
Req: Please give the measured pIC50 for this compound: CN(Cc1ccc(-n2cccn2)cc1)c1ncnc(NCC2(CCO)CCOCC2)c1F
Resp: > 5.00
